Test: soluble on expression in E. coli; label from the status in PepcDB or PDB records
Measured parameter: soluble on expression in E. coli

Examples with answers:
Biopolymer sequence	Endpoint value
MAMNNILGLFAHSPLKPLQKHSEKVTECSDLLIPFFQTTFSKNWEQAEEKRLEISQCEREADSLKREIRLKLPRGLFLPIDRTDLLELVTQQDKLANYAKDIAGRMIGRQFGIPEEMQEEFLHYVKRSLDAIHQAHRVIEEMDKLLETGFKGRELKLVNDMIQELDSIEDDTDQMQIKLRKMLYTIESRYNPIDVMFLYKIIEWVGVLADQAQRVGSRIELMLARS	not soluble
MTTVRIPAGWPATEEEARAVQDELRGRVILDEPGPPPGTGRVTGVDVAYDDERDVVVAAAVVLDAATLDVVAEATAVGEVSFPYVPGLLAFREIPTVLAALDALPCPPGLIVCDGYGVAHPRRFGLASHLGVLTGLPTIGVAKNPFTFSYEDPGAPRGSAAPLLAGADEVGRALRTQSGVKPVFVSVGHRVDLDHACAHTLALTPKYRIPETTRRADSLCRRALKEATALEHHHHHH	soluble
SLEPIGRSLQGVTGRPDFQKRLEQMKEKVMKDQDVQAFLKENEEVIDQKMIEKSLNKLYEYIEQSKNCSYCSEDENCNNLLEGYHPKLVVNGRSIDIEYYECPVKRKLDQQKKQQSLMKSMYIQQDLLGATFQQVDISDPSRLAMFQHVTDFLKSYNETGKGKGLYLYGKFGVGKTFMLAAIANELAEKEYSSMIVYVPEFVRELKNSLQDQTLEEKLNMVKTTPVLMLDDIGAESMTSWVRDEVIGTVLQHRMSQQLPTFFSSNFSPDELKHHFTYSQRGEKEEVKAARLMERILYLAAPIRLDGENRRHP	soluble
MSLSDNVVTSKVGNVTEKELSKELRQQYGESTLYQMMLSKALLDKYKVSDEEAKKKVEEAKDKMGENFKSTLEQLGLKNEDELKEKMKPEIAFEKAIKATVTDKDVKNNYKPEMKVSHILVKDEKTAKEIKEKVNNGEDFAALANQYSEDTGSKEQGGEISGFAPGQTVKEFEEAAYKLDAGQVSDPVKTTYGYHIIKVTDKKELKPFDEVKDKIRKDIEQQRLQDTTGKWKQQVVNDLLKDADIKVNNKEFKDTFKFLEKEGHHHHHH	soluble
MDAVQELERRIVELEIQSALQEDVIAGLNAMVAELRQTLDLQQAQLRLLYQKMQDRNPDAQEPYSLRDEIPPHY	not soluble

Shift focus to the following entry.
Req: Fill in the blank: the reported soluble on expression in E. coli of GPGSMLRPSSLCRVAFPVHRDTTKTPRLVKEVGSWLYKRETVESFRAWCKANNVRGSGNVKVVSTMHYARCLRAARHLRPGQAIITLPHTACFNFLVVAKEMYGVSGKGGTVSHNFPLEVNWMNYDERCSFLRSASMSELTTAGWMCRIASLEESRFTPYIHWLLEDTRGRDGVANGVSRERGEESGLVDHYFSEMATDACEDPEEFLENLFRSFAALHLRAVPIESAAIRLFLPGTNFFKAKVDEMFVPTLMPLIDAVPQLEDGLHNTAVEYFPFSDEETLLKQCKDLVLSEGGTNEMRELRRRCLAQEQGAGAFFALRALCPIEEGDYLYVRGVPKLGAPEQESMTVRVMEANRLLNNE is ____.
Resp: not soluble
